pD2 overview
# Organism: Oryctolagus cuniculus
# TEST_METHOD_NOTES: In vitro inhibition of contraction of rabbit aorta strips measured as pD2 calculated by the method of Van Rossum
# Assay type: functional
// keep it numeric: no unit symbol after the value

• CCCCc1nc2c(C)cnc(C(=O)O)c2n1Cc1ccc(-c2ccccc2-c2nn[nH]n2)cc1 = 9.16
• CCOc1nc2cccc(C(=O)O)c2n1Cc1ccc(-c2ccccc2-c2nnn[nH]2)cc1 = 9.97
• CCSc1nc2c(C)sc(C(=O)O)c2n1Cc1ccc(-c2ccccc2-c2nn[nH]n2)cc1 = 9.65

Value lookup for pD2; key = `CCCc1cn2ncc(C(=O)O)c2n1Cc1ccc(-c2ccccc2-c2nn[nH]n2)cc1`
9.58

* * *

# pIC50 per entry for Type-1 angiotensin II receptor (Bos taurus, UniProt P25104)
The quantity pIC50 is defined as the negative base-10 logarithm of the molar concentration.

* CCSc1nc2c(C)sc(C(=O)O)c2n1Cc1ccc(-c2ccccc2-c2nn[nH]n2)cc1 | 6.30

Consider the additional molecule presented here.
Lookup: pIC50 / Type-1 angiotensin II receptor (Bos taurus, UniProt P25104) / `CCCCc1nc2c(C)cncc2n1Cc1ccc(-c2ccccc2-c2nnn[nH]2)cc1`
7.27

These data points were gathered from ChEMBL document CHEMBL1150444.
